Listed next: entries and their corresponding growth.
Tested on: RPMI-8226 leukemia
Test: NCI-60 one-dose screen, 48 h (100 = growth as untreated, 0 = no growth, -100 = all killed)
Details: 10 µM unless noted
The panel holds about 83,000 compounds, 20% with a hit somewhere; the sample as a whole holds those more often. Calls of active or inactive are those of the source. Rule for the calls: active = growth percent below 10; inactive = the rest.

Look over these answered cases.
>>> endpoint_value("Clc1ccc(-c2nc(-c3c[nH]c4ncccc34)cs2)cc1")
"91.4% [100 µM] (inactive)"
>>> endpoint_value("C/C(=N\\Nc1nc(C)cs1)c1cc2ccccc2o1")
"88.5% (inactive)"
>>> endpoint_value("O=C(Nc1ccccc1O)c1ccccc1Nc1ccnc(C(F)(F)F)c1")
"56.5% (inactive)"
>>> endpoint_value("CC1=CCC[C@@H]2C1(C)CC[C@H](C)[C@@]2(C)CC1=CC(=O)C(SC(C)(C)C)=CC1=O (stereo not given in full)")
"64.7% (inactive)"

In the following, a different compound is considered.
q: # growth lookup, item COc1ccc(Nc2ncccc2NC(=O)c2cn(Cc3cccc(Oc4ccccc4)c3)nn2)cc1OC
a: 73.2% (inactive)
